Origin of the recorded values: ChEMBL document CHEMBL1201862

Overview of reported EC50 across a group of compounds:
# SYSTEM UNDER TEST: RNA-binding protein pos-1 (Caenorhabditis elegans, UniProt G5EF15)
# Sequence (G5EF15 whole entry): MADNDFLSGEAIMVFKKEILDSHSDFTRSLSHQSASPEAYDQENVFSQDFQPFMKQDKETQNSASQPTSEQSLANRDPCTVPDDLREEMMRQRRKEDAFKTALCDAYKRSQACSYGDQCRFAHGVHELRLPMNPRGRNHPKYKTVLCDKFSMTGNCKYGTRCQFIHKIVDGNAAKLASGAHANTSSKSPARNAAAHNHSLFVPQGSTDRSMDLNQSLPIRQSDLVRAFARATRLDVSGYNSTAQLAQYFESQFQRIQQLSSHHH
# PROTOCOL TEXT: disruptors of C. elegans POS-1 RNA interaction – biochemical, fluorescence polarization, dose response (AID 1964);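 further: purified POS-1 fused to maltose binding protein made in E. coli; potency of compounds blocking POS-1 binding to fluorescent RNA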
The source made the active and inactive calls.

Cc1ccc(-c2nnc(Nc3ccc(CC(N)=O)cc3)c3ccccc23)cc1S(N)(=O)=O | > 300 µM (not active)

May I ask what EC50 has been recorded for `CC1=N/C(=C/c2ccco2)C(=O)O1` ?
71.1 µM (active)

May I ask what EC50 has been recorded for `CC(C)(C)C(=O)c1sc2nc(-c3cccs3)cc(C(F)(F)F)c2c1N` ?
> 300 µM (not active)

May I ask what EC50 has been recorded for `COC(=O)c1c(O)[n+]([O-])c2ccc(OC)cc2[n+]1[O-]` ?
14.1 µM (active)

May I ask what EC50 has been recorded for CCCCC1=CC2=CC(=O)C(C)(O)C(=O)C2=CO1 (stereo unspecified) ?
55.3 µM (active)

May I ask what EC50 has been recorded for `Cc1cc(=O)n2c(n1)/C(=N\Nc1ccccc1)C(=O)N2` ?
0.374 µM (inconclusive)

* * *

# SYSTEM UNDER TEST: Calpain-2 catalytic subunit (Sus scrofa, UniProt P43367)
# Sequence (P43367 whole entry): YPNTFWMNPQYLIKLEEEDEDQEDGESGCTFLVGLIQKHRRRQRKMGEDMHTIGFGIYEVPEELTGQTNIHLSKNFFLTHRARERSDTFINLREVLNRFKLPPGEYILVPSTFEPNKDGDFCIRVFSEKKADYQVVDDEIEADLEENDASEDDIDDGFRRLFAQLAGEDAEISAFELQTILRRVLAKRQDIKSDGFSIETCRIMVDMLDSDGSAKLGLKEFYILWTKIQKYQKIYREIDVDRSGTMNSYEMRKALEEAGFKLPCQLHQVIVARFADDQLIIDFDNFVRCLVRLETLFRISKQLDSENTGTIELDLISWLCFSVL
# PROTOCOL TEXT: m-calpain protease blockers, concentration series – biochemical, fluorogenic peptide substrate, dose response (AID 1420)
# Format: functional
REPORTED METRIC: IC50

S=C(NCc1ccco1)N/N=C/c1ccccc1Cl | 2.44 µM (not active)
CC(C)Cn1c(N)c(C(=O)COC(=O)/C=C/c2cccs2)c(=O)n(C)c1=O | > 50 µM (not active)
C=CCn1c(Sc2nc(C)cs2)nc2c1c(=O)[nH]c(=O)n2C | > 50 µM (not active)
CN(CC(=O)Nc1ccc(N2CCOCC2)cc1)Cc1cc(=O)n2ccsc2n1 | < 0.4 µM (not active)
O=C(CNCc1ccccc1)Nc1ccc(Oc2ccccc2)cc1 | > 50 µM (not active)

// lookup IC50 | system=Calpain-2 catalytic subunit (Sus scrofa, UniProt P43367) | key= `C/C(=N/NC(=O)c1cc(-c2cccc([N+](=O)[O-])c2)[nH]n1)c1ccc(Cl)cc1`
13.6 µM (not active)

// lookup IC50 | system=Calpain-2 catalytic subunit (Sus scrofa, UniProt P43367) | key= OC(COc1cccc2ccccc12)CN1CCN(c2ccccc2Cl)CC1 (stereo unspecified)
3.82 µM (not active)

// lookup IC50 | system=Calpain-2 catalytic subunit (Sus scrofa, UniProt P43367) | key= `Clc1ccccc1-c1nnc2sc(-c3cccs3)nn12`
2.83 µM (not active)

// lookup IC50 | system=Calpain-2 catalytic subunit (Sus scrofa, UniProt P43367) | key= `O=C(CN1C(=O)c2ccccc2C1=O)Nc1ccc(-c2nc3ccccc3o2)cc1`
17.9 µM (not active)

// lookup IC50 | system=Calpain-2 catalytic subunit (Sus scrofa, UniProt P43367) | key= `Cc1ccc(NC(=O)c2ccc(C(C)(C)C)cc2)cc1-n1cnnn1`
0.895 µM (not active)

// lookup IC50 | system=Calpain-2 catalytic subunit (Sus scrofa, UniProt P43367) | key= `N#Cc1c(Cl)cccc1Oc1ccc(S(=O)(=O)Nc2ccccc2)cc1`
> 50 µM (not active)

* * *

# SYSTEM UNDER TEST: Zinc finger protein mex-5 (Caenorhabditis elegans, UniProt Q9XUB2)
# Sequence (Q9XUB2 whole entry): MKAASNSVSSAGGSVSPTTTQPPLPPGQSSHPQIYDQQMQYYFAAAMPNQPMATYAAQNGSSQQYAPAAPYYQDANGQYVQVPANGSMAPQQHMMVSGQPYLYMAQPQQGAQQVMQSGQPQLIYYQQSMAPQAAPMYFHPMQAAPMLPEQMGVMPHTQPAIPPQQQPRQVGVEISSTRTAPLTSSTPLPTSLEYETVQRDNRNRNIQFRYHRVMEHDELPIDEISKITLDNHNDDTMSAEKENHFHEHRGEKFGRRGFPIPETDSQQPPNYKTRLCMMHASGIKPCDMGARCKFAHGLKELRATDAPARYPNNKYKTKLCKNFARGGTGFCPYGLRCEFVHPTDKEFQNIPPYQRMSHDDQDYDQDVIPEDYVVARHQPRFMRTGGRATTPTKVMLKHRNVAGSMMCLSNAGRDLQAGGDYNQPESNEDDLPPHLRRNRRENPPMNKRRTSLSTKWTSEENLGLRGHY
# PROTOCOL TEXT: potency of MEX-5 RNA-binding blockers – biochemical, C. elegans, fluorescence polarization, dose response (AID 1960)
The source made the active and inactive calls.
REPORTED METRIC: EC50

Observe how each entry below is paired with its result.
Cc1ccc(-c2nnc(Nc3ccc(CC(N)=O)cc3)c3ccccc23)cc1S(N)(=O)=O | > 300 µM (not active)
Oc1ccc(/C=C/c2cc(O)cc(O)c2)cc1 | 163 µM (active)
O=C1C([N-]S(=O)(=O)c2cccs2)=C([n+]2ccc(CCCc3ccccc3)cc2)C(=O)c2ccccc21 | 97 µM (active)

May I ask what EC50 has been recorded for `Cc1cc(/C=C(/C#N)c2nc3ccccc3[nH]2)c(C)n1-c1cc(C(=O)O)cc(C(=O)O)c1` ?
41.4 µM (active)

May I ask what EC50 has been recorded for `COC(=O)c1c(O)[n+]([O-])c2ccc(OC)cc2[n+]1[O-]` ?
> 300 µM (inconclusive)

* * *

Overview of reported EC50 across a group of compounds:
# SYSTEM UNDER TEST: Short transient receptor potential channel 4 (Mus musculus, UniProt Q9QUQ5)
# Sequence (Q9QUQ5 whole entry): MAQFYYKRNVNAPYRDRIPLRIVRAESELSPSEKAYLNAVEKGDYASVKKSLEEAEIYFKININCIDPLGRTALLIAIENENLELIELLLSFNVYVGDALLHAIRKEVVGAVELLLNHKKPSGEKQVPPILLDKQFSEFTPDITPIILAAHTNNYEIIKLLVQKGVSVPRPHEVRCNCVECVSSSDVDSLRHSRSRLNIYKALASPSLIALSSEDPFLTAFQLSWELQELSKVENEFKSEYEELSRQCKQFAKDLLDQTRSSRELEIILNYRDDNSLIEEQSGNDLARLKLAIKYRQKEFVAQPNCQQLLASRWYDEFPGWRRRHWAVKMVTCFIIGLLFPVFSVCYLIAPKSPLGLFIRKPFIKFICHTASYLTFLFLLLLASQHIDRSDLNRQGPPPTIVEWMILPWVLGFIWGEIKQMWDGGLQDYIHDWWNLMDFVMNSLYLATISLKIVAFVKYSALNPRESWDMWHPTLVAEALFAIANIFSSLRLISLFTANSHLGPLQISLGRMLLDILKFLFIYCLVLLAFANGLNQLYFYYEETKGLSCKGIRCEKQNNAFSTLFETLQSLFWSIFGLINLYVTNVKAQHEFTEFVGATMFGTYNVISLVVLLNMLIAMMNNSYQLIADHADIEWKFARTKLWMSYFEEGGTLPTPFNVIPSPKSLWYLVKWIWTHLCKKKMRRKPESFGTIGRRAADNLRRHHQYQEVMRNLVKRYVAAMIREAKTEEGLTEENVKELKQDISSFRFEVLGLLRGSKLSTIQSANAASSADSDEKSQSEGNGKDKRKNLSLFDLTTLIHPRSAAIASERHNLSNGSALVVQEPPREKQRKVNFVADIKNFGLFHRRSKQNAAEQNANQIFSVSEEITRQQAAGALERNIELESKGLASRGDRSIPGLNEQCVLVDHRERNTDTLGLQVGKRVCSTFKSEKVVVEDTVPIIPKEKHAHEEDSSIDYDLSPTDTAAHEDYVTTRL
# PROTOCOL TEXT: block of DAMGO-driven TRPC4 calcium entry – cell-based, HEK293 TRPC4/mu-opioid, Fluo-4 calcium, dose response (AID 434942);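 further: potency of inhibitors blocking the TRPC4 calcium response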
# Type: functional
Activity calls are given as the source filed them.

Observe how each entry below is paired with its result.
CC1(C)CC2CC(C)(CN2C(=O)c2cc(-c3ccc(O)cc3)on2)C1 (stereo not given) | 5.31 µM (active)
CC(C)(c1ccccc1)c1ccc(OCCCNCCO)cc1 | 4.22 µM (active)
O=C(CN1CCCCC1)N1c2ccccc2Oc2ccccc21 | 6.68 µM (active)
COCCn1c(SCc2cc(C(C)=O)ccc2OC)nc2cc(Cl)ccc2c1=O | 3.35 µM (active)

May I ask what EC50 has been recorded for `Clc1ccc(CN2C3=NCCN3c3ccccc32)cc1Cl` ?
1.19 µM (active)
